Value source: ChEMBL document CHEMBL1201862

System: U-251
method: NCI tumour cell line growth inhibition, 48 h
The source made the active and inactive calls. Cut-off read from the data, not from the text of the source: active = GI50 up to about 1.1 µM and inactive = higher. Where a SMILES comes first, the peptide text is derived from it. The star is where a group is joined. Boc = CC(C)(C)OC(=O)*
Labels: active, inactive

molecule | class assignment
N#CC(c1nc2ccccc2s1)c1ncnc(Cl)c1[N+](=O)[O-] (stereo not given) | inactive
Cc1ncc(CSc2ccccc2N)c(CO)c1O | inactive
O=c1[nH]c(=O)n(C2CC(O)C(CO)O2)cc1Oc1ccccc1 (stereo not given) | inactive
C=C(C)[C@@H]1CC[C@]2(C(=O)O)CC[C@]3(C)[C@H](CC[C@@H]4[C@@]5(C)CC(=O)C(C)(C)[C@@H]5CC[C@]43C)[C@@H]12 | inactive
CCOP(=O)(Nc1ccc(-c2ccccc2)cc1)OCC | inactive
O=C(O)Cc1nc[nH]c1C(=O)O | inactive
COC(=O)CCC1(NS(=O)(=O)c2ccc(C)cc2)CCC(C(C)(C)C)CC1 (stereo not given) | inactive
CCOC(=O)CCC(NC(=O)c1ccc(Nc2nc3ccccc3nc2C(=O)OCC)cc1)C(=O)OCC (stereo not given) | inactive
CCCCCCCC(=O)OC[C@H](C[As](=O)(O)O)OC(=O)CCCCCCC | inactive
COc1cc(OC)c2c(=O)cc(-c3ccccc3F)[nH]c2c1 | inactive
Cc1cc(C)c2c(c1)CSCc1cc(C)cc(C)c1-2 | inactive
Cc1nn(C(=O)c2ccccc2O)c2c1C(c1ccccc1)SC(=N)N2 (stereo not given) | inactive
C=C1CC/C=C(\C)CCC[C@H](C)[C@@H](O)[C@@H]2OC(=O)C(=C)[C@@H]2C[C@H]1O | inactive
COC(=O)C(Cc1c[nH]c2ccccc12)NC(=O)C(Cc1c[nH]c2ccccc12)NC(=O)C(Cc1c[nH]c2ccccc12)NC(=O)C(Cc1c[nH]c2ccccc12)NC(=O)C(Cc1c[nH]c2ccccc12)NC(=O)C(Cc1c[nH]c2ccccc12)NC(=O)C(Cc1c[nH]c2ccccc12)NC(=O)OC(C)(C)C (stereo not given) (Boc-WWWWWWW-OMe; configuration not given here) | inactive
CN(C)CC(C)(C)C(/C=C/c1ccccc1)=N\Nc1ccccc1 | active
Cc1cc(O)c(C=O)c(C)c1CCC1(C)C=Cc2cc(O)ccc2O1 (stereo not given) | inactive
C1CCC2C(C1)CCCC2NC1=NCCO1 (stereo not given) | inactive
O=C(c1ccc(Cl)cc1)N(C(=S)N1CCN(c2ccccc2)CC1)c1ccccc1 | inactive
Nc1ncnn2c(C3OC(CO)C(O)C3O)ccc12 (stereo not given) | active
Cc1ccc(NC(=O)CCc2nnc(S)[nH]2)cc1 | inactive

* * *

System: SR
method: NCI tumour cell line growth inhibition, 48 h
Activity calls are given as the source filed them. Rule as the data show it: active = GI50 up to about 1.1 µM and inactive = higher. Residues, ends and D or L forms follow the SMILES beside them. *: point of attachment. Boc = CC(C)(C)OC(=O)*; OBn = c1ccc(CO*)cc1; Bn = c1ccc(C*)cc1
Labels: active, inactive

compound | class assignment
Cc1cccc2c1NC(=S)[C@@H]1CCCN1C2=O | inactive
Cc1c(C)c(S(=O)(=O)N(CCCN)OCCCN)c(C)c2c1OC(C)(C)CC2 | inactive
C/C(CCn1[nH]c(=O)ccc1=O)=N\OCCCc1ccccc1 | inactive
c1ccc(C2CC(c3ccc4ccccc4c3)=Nc3ccccc3S2)cc1 (stereo not given) | inactive
O=C(CC(=O)C(=O)CC(=O)OCc1ccccc1)OCc1ccccc1 | inactive
Nc1ncnn2c(C3OC(CO)C(O)C3O)ccc12 (stereo not given) | active
O=c1c2ccccc2c2c1c1c3ccccc3c(=O)c1c1c3ccccc3c(=O)c21 | inactive
COc1ccc(/C=C(/C#N)C(N)=O)c(OC)c1 | inactive
COc1cc(OC)c2c(=O)c(O)c(-c3ccc(OC)c(OC)c3)oc2c1 | inactive
CC(C)CC(NC(=O)C(Cc1ccccc1)NC(=O)C(COCc1ccccc1)NC(=O)OC(C)(C)C)C(=O)OCc1ccccc1 (stereo not drawn) (Boc-Ser(Bn)-Phe-Leu-OBn; configuration not given here) | inactive
